All figures here come from the supplement of paper PMC8728848.

# tested.system: Man(a1-2)Man(a1-3)[Man(a1-2)Man(a1-6)]Man(a1-6)[Man(a1-2)Man(a1-2)Man(a1-3)]Man
# measurement.description: glycan array binding signal (z-score within array); higher = stronger binding
# condition.info: glycan notation: IUPAC condensed, linker removed
This excerpt belongs to a sample that is enriched for the strongest signals.
Mark met for reported glycan array binding signal (z-score) of -0.5 or greater; mark not met for anything smaller.

{"binder": "Gz-CVNH (Gibberella zeae) (protein) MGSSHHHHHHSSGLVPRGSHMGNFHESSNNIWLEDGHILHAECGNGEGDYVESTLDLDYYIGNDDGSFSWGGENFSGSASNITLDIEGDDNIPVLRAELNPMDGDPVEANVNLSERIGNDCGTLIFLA", "discrete.label": "met"}
{"binder": "GH95CBM (Clostridium perfringens) (protein) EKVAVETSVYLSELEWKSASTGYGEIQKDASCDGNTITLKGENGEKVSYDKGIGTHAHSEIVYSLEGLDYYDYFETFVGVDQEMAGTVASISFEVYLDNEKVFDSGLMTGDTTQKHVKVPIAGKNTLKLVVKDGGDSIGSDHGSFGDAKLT", "discrete.label": "met"}

Hello, I need to know if CBM13 2a (Mycobacterium tuberculosum), P64849 (protein) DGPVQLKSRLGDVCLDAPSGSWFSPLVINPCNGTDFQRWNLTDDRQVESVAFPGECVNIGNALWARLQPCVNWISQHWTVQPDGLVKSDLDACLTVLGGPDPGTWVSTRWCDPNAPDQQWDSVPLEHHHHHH has measured glycan array binding signal (z-score) not below -0.5. Thanks!
met

Hello, I need to know if Als3-2 (Candida albicans) (protein) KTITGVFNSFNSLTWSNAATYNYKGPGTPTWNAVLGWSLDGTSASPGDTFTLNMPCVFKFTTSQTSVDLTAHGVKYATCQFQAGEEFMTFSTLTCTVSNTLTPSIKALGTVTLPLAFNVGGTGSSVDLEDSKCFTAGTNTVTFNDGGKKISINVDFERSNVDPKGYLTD has measured glycan array binding signal (z-score) not below -0.5. Thanks!
not met

Hello, I need to know if SfaEH (Escherichia coli), Q1RDG5 (protein) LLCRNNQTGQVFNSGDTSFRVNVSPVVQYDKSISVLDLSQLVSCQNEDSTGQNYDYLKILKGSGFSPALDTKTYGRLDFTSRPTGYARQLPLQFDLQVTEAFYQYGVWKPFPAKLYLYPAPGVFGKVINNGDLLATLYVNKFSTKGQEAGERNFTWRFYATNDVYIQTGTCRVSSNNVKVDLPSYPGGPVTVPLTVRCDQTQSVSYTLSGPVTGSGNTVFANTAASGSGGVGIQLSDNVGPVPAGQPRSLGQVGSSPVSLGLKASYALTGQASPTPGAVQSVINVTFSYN has measured glycan array binding signal (z-score) not below -0.5. Thanks!
met

Hello, I need to know if Pwp2 (Candida glabrata) (protein) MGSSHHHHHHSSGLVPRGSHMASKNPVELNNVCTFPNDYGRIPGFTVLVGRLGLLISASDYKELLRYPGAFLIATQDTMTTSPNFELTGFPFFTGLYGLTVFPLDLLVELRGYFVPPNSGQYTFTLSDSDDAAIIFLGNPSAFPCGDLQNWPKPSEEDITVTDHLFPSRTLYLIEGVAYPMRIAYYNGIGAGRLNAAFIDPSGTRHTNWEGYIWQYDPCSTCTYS has measured glycan array binding signal (z-score) not below -0.5. Thanks!
not met

Hello, I need to know if LecB PA14 (Pseudomonas aeruginosa) (protein) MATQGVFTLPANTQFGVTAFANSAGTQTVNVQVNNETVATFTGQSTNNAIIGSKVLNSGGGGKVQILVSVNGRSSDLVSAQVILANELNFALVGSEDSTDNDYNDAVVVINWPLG has measured glycan array binding signal (z-score) not below -0.5. Thanks!
met

Hello, I need to know if RS2L (Ralstonia solanacearum), B5RXL5_RALSO (protein) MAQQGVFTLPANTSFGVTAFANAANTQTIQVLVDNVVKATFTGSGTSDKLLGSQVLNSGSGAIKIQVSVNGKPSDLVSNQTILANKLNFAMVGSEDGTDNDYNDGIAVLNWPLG has measured glycan array binding signal (z-score) not below -0.5. Thanks!
met

Hello, I need to know if Pwp6 (Candida glabrata) (protein) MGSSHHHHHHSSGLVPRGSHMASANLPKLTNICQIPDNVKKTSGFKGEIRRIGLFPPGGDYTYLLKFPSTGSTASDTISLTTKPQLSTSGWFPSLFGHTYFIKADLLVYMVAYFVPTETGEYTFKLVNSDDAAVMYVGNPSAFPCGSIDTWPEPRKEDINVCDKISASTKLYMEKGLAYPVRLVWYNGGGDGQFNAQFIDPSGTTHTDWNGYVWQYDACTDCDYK has measured glycan array binding signal (z-score) not below -0.5. Thanks!
not met
